- Tested on: HeLa Kyoto
- Experiment Notes: solubility change mitosis vs G1/S (difference of NP-40 vs SDS log2 ratios) (log2 ratio difference); higher = more soluble in mitosis
Parameter Measured: solubility change mitosis (log2)
# respond with the number and nothing more

Solved entries:
[[record]]
seq = "MSDTAVADTRRLNSKPQDLTDAYGPPSNFLEIDIFNPQTVGVGRARFTTYEVRMRTNLPIFKLKESCVRRRYSDFEWLKNELERDSKIVVPPLPGKALKRQLPFRGDEGIFEESFIEERRQGLEQFINKIAGHPLAQNERCLHMFLQEEAIDRNYVPGKVRQ [SNX12]"
assay_result = 0.12

[[record]]
seq = "MSLRKQTPSDFLKQIIGRPVVVKLNSGVDYRGVLACLDGYMNIALEQTEEYVNGQLKNKYGDAFIRGNNVLYISTQKRRM [LSM6]"
assay_result = 0.276

[[record]]
seq = "MPVERMRMRPWLEEQINSNTIPGLKWLNKEKKIFQIPWMHAARHGWDVEKDAPLFRNWAIHTGKHQPGVDKPDPKTWKANFRCAMNSLPDIEEVKDKSIKKGNNAFRVYRMLPLSERPSKKGKKPKTEKEDKVKHIKQEPVESSLGLSNGVSDLSPEYAVLTSTIKNEVDSTVNIIVVGQSHLDSNIENQEIVTNPPDICQVVEVTTESDEQPVSMSELYPLQISPVSSYAESETTDSVPSDEESAEGRPHWRKRNIEGKQYLSNMGTRGSYLLPGMASFVTSNKPDLQVTIKEESNPVPYNSSWPPFQDLPLSSSMTPASSSSRPDRETRASVIKKTSDITQARVKSC [IRF2]"
assay_result = 0.0622


Consider the additional sequence presented here.
Incoming: Give the reported value of solubility change mitosis (log2) for this record: MADWARAQSPGAVEEILDRENKRMADSLASKVTRLKSLALDIDRDAEDQNRYLDGMDSDFTSMTSLLTGSVKRFSTMARSGQDNRKLLCGMAVGLIVAFFILSYFLSRART [BET1L]
Outgoing: 0.0489

###

# Lookup of reported solubility change mitosis (log2) keyed by entry
- System: HeLa Kyoto;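 also: synchronized HeLa Kyoto cells (double thymidine block for G1/S, nocodazole release for mitosis), protein amounts in NP-40 versus SDS lysates quantified by mass spectrometry, three biological replicates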
- Experiment Notes: solubility change mitosis vs G1/S (difference of NP-40 vs SDS log2 ratios) (log2 ratio difference); higher = more soluble in mitosis
# respond with the number and nothing more

Solved entries:
[[record]]
seq = "MAGLGHPAAFGRATHAVVRALPESLGQHALRSAKGEEVDVARAERQHQLYVGVLGSKLGLQVVELPADESLPDCVFVEDVAVVCEETALITRPGAPSRRKEVDMMKEALEKLQLNIVEMKDENATLDGGDVLFTGREFFVGLSKRTNQRGAEILADTFKDYAVSTVPVADGLHLKSFCSMAGPNLIAIGSSESAQKALKIMQQMSDHRYDKLTVPDDIAANCIYLNIPNKGHVLLHRTPEEYPESAKVYEKLKDHMLIPVSMSELEKVDGLLTCCSVLINKKVDS [DDAH1]"
assay_result = 0.0143

[[record]]
seq = "MVDYSVWDHIEVSDDEDETHPNIDTASLFRWRHQARVERMEQFQKEKEELDRGCRECKRKVAECQRKLKELEVAEGGKAELERLQAEAQQLRKEERSWEQKLEEMRKKEKSMPWNVDTLSKDGFSKSMVNTKPEKTEEDSEEVREQKHKTFVEKYEKQIKHFGMLRRWDDSQKYLSDNVHLVCEETANYLVIWCIDLEVEEKCALMEQVAHQTIVMQFILELAKSLKVDPRACFRQFFTKIKTADRQYMEGFNDELEAFKERVRGRAKLRIEKAMKEYEEEERKKRLGPGGLDPVEVYESLPEELQKCFDVKDVQMLQDAISKMDPTDAKYHMQRCIDSGLWVPNSKASEAKEGEEAGPGDPLLEAVPKTGDEKDVSV [CDC37]"
assay_result = 0.0658

[[record]]
seq = "MAAPWASLRLVAPMWNGRIRGIHRLGAAVAPEGNQKKKRTILQFLTNYFYDVEALRDYLLQREMYKVHEKNRSYTWLEKQHGPYGAGAFFILKQGGAVKFRDKEWIRPDKYGHFSQEFWNFCEVPVEAVDAGDCDINYEGLDNLLRLKELQSLSLQRCCHVDDWCLSRLYPLADSLQELSLAGCPRISERGLACLHHLQNLRRLDISDLPAVSNPGLTQILVEEMLPNCEVVGVDWAEGLKSGPEEQPRDTASPVPA [ATP5SL]"
assay_result = -0.0178

[[record]]
seq = "MAERPEDLNLPNAVITRIIKEALPDGVNISKEARSAISRAASVFVLYATSCANNFAMKGKRKTLNASDVLSAMEEMEFQRFVTPLKEALEAYRREQKGKKEASEQKKKDKDKKTDSEEQDKSRDEDNDEDEERLEEEEQNEEEEVDN [POLE3]"
assay_result = 0.5

[[record]]
seq = "MGAAAAEADRTLFVGNLETKVTEELLFELFHQAGPVIKVKIPKDKDGKPKQFAFVNFKHEVSVPYAMNLLNGIKLYGRPIKIQFRSGSSHAPQDVSLSYPQHHVGNSSPTSTSPSRYERTMDNMTSSAQIIQRSFSSPENFQRQAVMNSALRQMSYGGKFGSSPLDQSGFSPSVQSHSHSFNQSSSSQWRQGTPSSQRKVRMNSYPYLADRHYSREQRYTDHGSDHHYRGKRDDFFYEDRNHDDWSHDYDNRRDSSRDGKWRSSRH [RBM7]"
assay_result = 0.189

[[record]]
seq = "MADDFGFFSSSESGAPEAAEEDPAAAFLAQQESEIAGIENDEGFGAPAGSHAAPAQPGPTSGAGSEDMGTTVNGDVFQEANGPADGYAAIAQADRLTQEPESIRKWREEQRKRLQELDAASKVTEQEWREKAKKDLEEWNQRQSEQVEKNKINNRIADKAFYQQPDADIIGYVASEEAFVKESKEETPGTEWEKVAQLCDFNPKSSKQCKDVSRLRSVLMSLKQTPLSR [CLTB]"
assay_result = 0.651


Incoming: Give the reported value of solubility change mitosis (log2) for this record: MSTAMNFGTKSFQPRPPDKGSFPLDHLGECKSFKEKFMKCLHNNNFENALCRKESKEYLECRMERKLMLQEPLEKLGFGDLTSGKSEAKK [COX19]
Outgoing: 0.143

Incoming: Give the reported value of solubility change mitosis (log2) for this record: MAAAADSFSGGPAGVRLPRSPPLKVLAEQLRRDAEGGPGAWRLSRAAAGRGPLDLAAVWMQGRVVMADRGEARLRDPSGDFSVRGLERVPRGRPCLVPGKYVMVMGVVQACSPEPCLQAVKMTDLSDNPIHESMWELEVEDLHRNIP [RMI2]
Outgoing: 0.168
